- Test system: Streptococcus pneumoniae A28272
- measurement.description: MIC, broth micro dilution assay (NCCLS)
- Type: cell-based
- test.parameters: 50% Mueller-Hinton medium and 50% Todd Hewitt medium, 35° C., 18 hours
measurement.label: MIC (μg/mL) Streptococcus pneumoniae A28272 (µg/mL)

>>> assay_result("C=C(NC(=O)c1csc(-c2nc3c(cc2O)-c2nc(cs2)C(=O)NC(C(C)O)C(=O)NC(=C(C)OC)c2nc(cs2)C(=O)NC2c4nc(cs4)C(=O)NC(COC(=O)c4c5c6c(cccc6n4OCOP(=O)(OC(C)(C)C)OC(C)(C)C)COC(=O)C(OC4CC(C)(O)C(N(C)C)C(C)O4)C2OC5)c2nc-3cs2)n1)C(N)=O (stereo not drawn)")
0.015
>>> assay_result("C=C(NC(=O)c1csc(-c2nc3c(cc2O)-c2nc(cs2)C(=O)NC(C(C)O)C(=O)NC(=C(C)OC)c2nc(cs2)C(=O)NC2c4nc(cs4)C(=O)NC(COC(=O)c4c5c6c(cccc6n4OCc4ccc(C(=O)OC6CCCCO6)cc4)COC(=O)C(OC4CC(C)(O)C(N(C)C)C(C)O4)C2OC5)c2nc-3cs2)n1)C(N)=O (stereo not drawn)")
0.015
>>> assay_result("C=C(NC(=O)c1csc(-c2nc3c(cc2O)-c2nc(cs2)C(=O)NC(C(C)O)C(=O)NC(=C(C)OC)c2nc(cs2)C(=O)NC2c4nc(cs4)C(=O)NC(COC(=O)c4c5c6c(cccc6n4OCCCN(CC)CC)COC(=O)C(OC4CC(C)(O)C(N(C)C)C(C)O4)C2OC5)c2nc-3cs2)n1)C(N)=O (stereo not drawn)")
0.015
